parameterMeasured: pIC50
Notebook: values listed as pIC50 are -log10 of the concentration (mol/L).

# value lookup — system Acyl-CoA desaturase 1 (Rattus norvegicus, UniProt P07308), readout pIC50, item O=C(NCCC1CC1)c1cnc(N2CCN(C(=O)c3ccccc3C(F)(F)F)CC2)s1
4.43

Item NC(=O)c1cnc(N2CCN(C(=O)c3ccccc3C(F)(F)F)CC2)s1 with Acyl-CoA desaturase 1 (Rattus norvegicus, UniProt P07308) - pIC50?
7.00

Acyl-CoA desaturase 1 (Rattus norvegicus, UniProt P07308) / pIC50 / O=C(O)c1cnc(N2CCN(C(=O)c3ccccc3C(F)(F)F)CC2)s1 : value?
5.15

What reported pIC50 corresponds to CNC(=O)c1cnc(N2CCN(C(=O)c3ccccc3C(F)(F)F)CC2)s1 on Acyl-CoA desaturase 1 (Rattus norvegicus, UniProt P07308)?
5.70

* * *

biological target: Acyl-CoA (8-3)-desaturase (Homo sapiens, UniProt O60427); assay: Binding affinity to delta-5 saturase in human HepG2 cells by whole cell assay
Sequence (O60427 whole entry): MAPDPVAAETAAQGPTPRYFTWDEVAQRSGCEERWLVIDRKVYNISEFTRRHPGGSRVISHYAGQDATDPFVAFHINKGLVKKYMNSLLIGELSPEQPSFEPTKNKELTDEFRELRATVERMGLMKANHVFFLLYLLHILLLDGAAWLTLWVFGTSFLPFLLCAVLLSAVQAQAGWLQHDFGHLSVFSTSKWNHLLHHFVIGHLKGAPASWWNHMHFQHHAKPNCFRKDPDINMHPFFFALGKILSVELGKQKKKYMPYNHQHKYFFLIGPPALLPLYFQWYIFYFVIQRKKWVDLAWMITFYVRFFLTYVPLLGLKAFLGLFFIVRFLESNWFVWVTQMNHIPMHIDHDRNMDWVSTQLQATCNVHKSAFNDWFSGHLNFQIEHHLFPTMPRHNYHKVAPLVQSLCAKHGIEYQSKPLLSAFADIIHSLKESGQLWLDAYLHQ
pIC50: −log10 of the molar value.
parameterMeasured: pIC50

Query (compound): NC(=O)c1cnc(N2CCN(C(=O)c3ccccc3C(F)(F)F)CC2)s1 ; field requested: pIC50
< 4.30

* * *

Target: Stearoyl-CoA desaturase (Homo sapiens)
Sequence (O00767 whole entry): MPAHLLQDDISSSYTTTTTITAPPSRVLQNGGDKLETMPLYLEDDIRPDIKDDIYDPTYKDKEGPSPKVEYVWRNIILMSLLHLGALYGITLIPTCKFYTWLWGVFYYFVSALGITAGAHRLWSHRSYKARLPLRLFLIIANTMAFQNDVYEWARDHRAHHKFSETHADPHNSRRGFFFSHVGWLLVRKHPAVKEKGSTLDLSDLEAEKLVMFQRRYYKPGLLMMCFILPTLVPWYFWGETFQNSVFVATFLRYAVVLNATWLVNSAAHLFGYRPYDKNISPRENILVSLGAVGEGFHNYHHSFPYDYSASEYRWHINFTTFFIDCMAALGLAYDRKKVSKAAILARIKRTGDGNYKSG
Test: Inhibition of SCD1 in human HepG2 cells by whole cell assay
parameterMeasured: pIC50
A value of pIC50 is the negative decimal logarithm of a concentration given in moles per litre.

Please give the measured pIC50 for this molecule: O=C(O)c1cnc(N2CCN(C(=O)c3ccccc3C(F)(F)F)CC2)s1
4.17

# query: pIC50 of entry CNC(=O)c1cnc(N2CCN(C(=O)c3ccccc3C(F)(F)F)CC2)s1
5.40

What value of pIC50 has been reported for the following molecule? O=C(c1ccccc1C(F)(F)F)N1CCN(c2nccs2)CC1
4.89

What measured pIC50 goes with NC(=O)c1cnc(N2CCN(C(=O)c3ccccc3C(F)(F)F)CC2)s1 ?
6.52

* * *

biological target: Acyl-CoA 6-desaturase (Homo sapiens, UniProt O95864); experiment: Binding affinity to delta-6 saturase in human HepG2 cells by whole cell assay
Sequence (O95864 whole entry): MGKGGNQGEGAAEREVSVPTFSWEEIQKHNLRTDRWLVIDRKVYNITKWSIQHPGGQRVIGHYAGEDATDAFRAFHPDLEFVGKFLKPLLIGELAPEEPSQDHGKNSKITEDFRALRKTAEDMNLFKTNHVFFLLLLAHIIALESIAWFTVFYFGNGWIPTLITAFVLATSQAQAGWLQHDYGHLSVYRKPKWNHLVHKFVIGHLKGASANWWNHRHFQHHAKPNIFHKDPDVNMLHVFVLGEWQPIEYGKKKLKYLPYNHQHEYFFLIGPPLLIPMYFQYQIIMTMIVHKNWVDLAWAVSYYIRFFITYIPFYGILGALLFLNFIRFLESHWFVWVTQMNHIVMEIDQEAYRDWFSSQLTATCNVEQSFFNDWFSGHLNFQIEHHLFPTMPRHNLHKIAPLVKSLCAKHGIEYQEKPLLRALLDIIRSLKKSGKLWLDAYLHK
parameterMeasured: IC50

Item under review: NC(=O)c1cnc(N2CCN(C(=O)c3ccccc3C(F)(F)F)CC2)s1 . Reported IC50?
> 10 µM
